- study-target: UniProt O14842
- Sequence (O14842 whole entry): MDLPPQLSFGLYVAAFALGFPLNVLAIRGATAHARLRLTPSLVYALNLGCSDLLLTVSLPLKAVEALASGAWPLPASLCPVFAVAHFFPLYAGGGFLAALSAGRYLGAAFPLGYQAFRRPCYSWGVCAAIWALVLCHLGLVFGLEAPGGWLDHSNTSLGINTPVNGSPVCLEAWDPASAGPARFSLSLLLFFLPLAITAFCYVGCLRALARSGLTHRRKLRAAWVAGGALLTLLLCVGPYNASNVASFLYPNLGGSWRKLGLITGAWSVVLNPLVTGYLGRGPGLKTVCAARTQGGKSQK
- assay: Agonist activity at N-terminal FLAG tagged human FFAR1 transfected in African green monkey COS-7 cells assessed as accumulation of inositol phosphate incubated for 90 mins by TopCount NXT counter based analysis
Measured pEC50 by item
# reply with the number alone; pEC50 is -log10 of concentration in mol/L

Study these solved cases before continuing.
{"columns": ["molecule", "pEC50"],
 "data": [
  ["Cc1ccc(Nc2nc(N)nc(COc3cc(N4CCCC4=O)cc(C(F)(F)F)c3)n2)cc1Cl", 5.50],
  ["Cc1cc(OCc2nc(N)nc(NCCc3cc(C)ccc3F)n2)cc(N2CCCC2=O)c1", 8.52],
  ["Cc1cc(OCc2nc(N)nc(NCCc3ccc(Cl)c(C)c3)n2)cc(N2CCCC2=O)c1", 7.85],
  ["COc1cccc(CCNc2nc(N)nc(COc3cc(C)cc(N4CCCC4=O)c3)n2)c1", 7.92],
  ["Cc1cc(OCc2nc(N)nc(NCCc3ccccc3OC(F)(F)F)n2)cc(N2CCCC2=O)c1", 7.70]
]}

We next turn to a different molecule, shown below.
INPUT: Sample "Cc1ccc(Nc2nc(N)nc(COc3cccc(N4CCCC4=O)c3)n2)cc1Cl" — what was its pEC50?
OUTPUT: 6.09

---

logD listing for selected molecules.
- assay: Lipophilicity, logD of the compound
- Format: physicochemical
- condition-description: octanol/water
Response field accepts a number only; no unit should be typed.

INPUT: Data request, read-out logD, for COC(CNc1nc(N)nc(COc2cc(C)cc(N3CCCC3=O)c2)n1)c1cccc(Cl)c1 (stereo not given)
OUTPUT: 3.52

INPUT: For the molecule "Cc1cc(OCc2nc(N)nc(NCCc3cc(Cl)ccc3Cl)n2)cc(N2CCCC2=O)c1" , what logD is on record?
OUTPUT: 3.46

INPUT: Please look up its logD: Cc1cc(OCc2nc(N)nc(NCC(c3cccc(Cl)c3)N3CCCC3)n2)cc(N2CCCC2=O)c1 (stereo not given)
OUTPUT: 2.79

---

- study-target: UniProt Q5NUL3
- Sequence (Q5NUL3 whole entry): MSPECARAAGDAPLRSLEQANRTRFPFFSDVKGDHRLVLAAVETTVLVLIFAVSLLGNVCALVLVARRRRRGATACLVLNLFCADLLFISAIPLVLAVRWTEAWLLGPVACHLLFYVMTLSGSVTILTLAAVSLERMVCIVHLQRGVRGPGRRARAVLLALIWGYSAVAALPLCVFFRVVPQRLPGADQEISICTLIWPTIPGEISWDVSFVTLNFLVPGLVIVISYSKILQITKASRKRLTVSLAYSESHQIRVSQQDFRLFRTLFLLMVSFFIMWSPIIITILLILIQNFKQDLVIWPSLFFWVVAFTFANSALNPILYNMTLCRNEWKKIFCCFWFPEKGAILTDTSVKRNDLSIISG
- assay: Agonist activity at N-terminal FLAG tagged human FFAR4 transfected in African green monkey COS-7 cells assessed as accumulation of inositol phosphate incubated for 90 mins by TopCount NXT counter based analysis
pEC50: −log10 of the molar value.
// label = true (1) if pEC50 is not less than 7, otherwise false (0)

Worked examples, 3 compounds total:
{"columns": ["input-smiles", "assigned-label"],
 "data": [
  ["Cc1cc(OCc2nc(N)nc(NCCc3ccccc3)n2)cc(N2CCCC2=O)c1", "true (1)"],
  ["Cc1cc(OCc2nc(N)nc(NCCc3cccc(F)c3)n2)cc(N2CCCC2=O)c1", "true (1)"],
  ["Cc1ccc(Nc2nc(N)nc(COc3cccc(N4CCCC4=O)c3C)n2)cc1Cl", "false (0)"]
]}

INPUT: Assess whether reported pEC50 for "Cc1ccc(Nc2nc(N)nc(COc3ccc(Cl)c(N4CCCC4=O)c3)n2)cc1Cl" sits at 7 or higher.
OUTPUT: false (0)

INPUT: Record "COc1ccccc1CCNc1nc(N)nc(COc2cc(C)cc(N3CCCC3=O)c2)n1" ; criterion: pEC50 no lower than 7. Met?
OUTPUT: true (1)
